Below, each entry is listed alongside its reported growth inhibition.
experiment: NCI Yeast Anticancer Drug Screen. Data for the mlh1 rad18 strain (AID 175); details: S. cerevisiae mlh1 rad18 strain growth inhibition; at 50.0 µM; active compounds read high
Compounds without any hit were thinned out: in the full panel of roughly 79,000, 15% have a hit.
MEASURED METRIC: growth inhibition (%)

>>> df
                                   compound  measured
0           COc1nc(N)c([N+](=O)[O-])c(OC)n1     -19.4
1  Cc1ccc(/C(=C/CN2CC3CCC(CC3)C2)c2ccccc2)cc1     -13.8
2                      ClC12CCC(Cl)(CC1)CC2     -7.95
3                  CN1CCN(C)c2nc3ccccc3nc21     -7.05
4  CC(C)CCN(CC(C)C)C(=O)c1ccc([N+](=O)[O-])cc1 (tested in a mixture with another compound)      14.1
5  C[n+]1c(-c2ccc(Cl)c(Cl)c2)c2cc(N)ccc2c2ccccc21      14.4
